Target: T1, GST-SITAC 18 PDZ domain 1 fusion protein (human), Q9H190
T1 chain: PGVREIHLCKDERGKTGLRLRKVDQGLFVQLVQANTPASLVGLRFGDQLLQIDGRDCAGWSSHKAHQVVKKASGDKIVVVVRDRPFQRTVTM
Experiment: G3 assay titration, immobilised GST-PDZ
pEC50: −log10 of the molar value. No end group written: not given here.
Measured quantity: pEC50

# lookup: pEC50 of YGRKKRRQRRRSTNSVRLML (not fully specified)
> 6.00
